From: ChEMBL document CHEMBL6182895

Experiment: Inhibition of alpha-amylase (unknown origin) using starch as substrate preincubated for 10 mins followed by substrate addition and measured after 10 mins
Parameters: species or system Homo sapiens
# log10 of IC50 per record follows
Values are log10 of IC50 in µM.

Challenge: For the compound shown here, `O=C(CN1C(=O)/C(=C/c2csc3ccccc23)SC1=S)Nc1c(F)cc(Br)cc1Cl` , give the reported log10 of IC50.
Response given: 2.19

Challenge: Same for `O=C(CN1C(=O)/C(=C/c2nc3ccccc3s2)SC1=S)Nc1ccc(Br)cc1F`
Response given: 2.11

Challenge: Try this compound next: `O=C(CN1C(=O)/C(=C/c2csc3ccccc23)SC1=S)Nc1ccc(C(F)(F)F)cc1`
Response given: 1.15
